target: Human Cot (Homo sapiens (Human)); experiment: High Throughput Cot Biochemical Assay; settings: IC50 HTRF, Cot HTRF (TR-FRET) biochemical assay
Sequence (P41279 30-397): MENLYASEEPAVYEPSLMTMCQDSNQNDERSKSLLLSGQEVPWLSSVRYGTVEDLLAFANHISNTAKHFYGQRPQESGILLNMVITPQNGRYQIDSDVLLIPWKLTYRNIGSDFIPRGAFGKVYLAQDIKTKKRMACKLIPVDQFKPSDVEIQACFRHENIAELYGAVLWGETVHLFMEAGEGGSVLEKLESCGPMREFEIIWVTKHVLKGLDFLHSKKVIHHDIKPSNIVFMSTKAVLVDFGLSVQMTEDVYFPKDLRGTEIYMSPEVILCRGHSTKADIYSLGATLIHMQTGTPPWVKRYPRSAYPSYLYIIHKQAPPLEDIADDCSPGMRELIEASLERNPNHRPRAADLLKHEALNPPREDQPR
Quick list: log10(IC50) per entry.
result type: log10(IC50) (log10 of the value in nM)

# molecular string, target or test system, log10(IC50)
measured = [
    ("CC(C)(C)CNc1c(C#N)cnc2c(Cl)cc(N[C@H](c3cn(C4(C(F)(F)F)CC4)nn3)c3cccc4c(=O)n(CC(F)(F)F)ccc34)cc12", "Human Cot (Homo sapiens (Human))", 0.60),
    ("Cc1nc(F)ccc1[C@H](Nc1cc(Cl)c2ncc(C#N)c(NCC(C)(C)C(F)(F)F)c2c1)c1cn(C2(C(F)(F)F)CC2)nn1", "Human Cot (Homo sapiens (Human))", 0.78),
    ("Cc1ccc([C@H](Nc2cc(Cl)c3ncc(C#N)c(Nc4ccc(F)c(Cl)c4)c3c2)c2cn(COC(=O)C(C)(C)C)nn2)cn1", "Human Cot (Homo sapiens (Human))", 1.71),
    ("CC(C)(CNc1c(C#N)cnc2c(Cl)cc(N[C@H](c3cn(C4(C(F)F)CC4)nn3)c3cccc4c(=O)[nH]ccc34)cc12)C(F)(F)F", "Human Cot (Homo sapiens (Human))", 0.60),
    ("[2H][C@@](Nc1cc(Cl)c2ncc(C#N)c(N[C@H](CC)c3ccccc3)c2c1)(c1cn(C2CC2)nn1)c1cccnc1F", "Human Cot (Homo sapiens (Human))", 0.48),
    ("CC(C)(C)CNc1c(C#N)cnc2c(C#N)cc(N[C@H](c3cn(C4(C(N)=O)CC4)nn3)c3cccc4ncsc34)cc12", "Human Cot (Homo sapiens (Human))", 0.00),
]
